target: recombinant soluble homotrimeric HA of A/chicken/Vietnam/NCVD-016/08 (H5N1) (Influenza A virus A/chicken/Vietnam/NCVD-016/2008 (H5N1)); test: HA microarray, BCC supernatant; conditions: remark: other sources report otherwise
Under this convention, true (1) denotes Trimeric HA Binding RLU strictly below 50000 RLU and false (0) denotes Trimeric HA Binding RLU at or above 50000 RLU.

binder	label
TCN-534 (5249_B02) (antibody, V domains shown) VH: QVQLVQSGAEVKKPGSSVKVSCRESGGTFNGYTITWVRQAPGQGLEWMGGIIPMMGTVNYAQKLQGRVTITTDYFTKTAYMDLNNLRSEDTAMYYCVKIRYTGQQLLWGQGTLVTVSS VL: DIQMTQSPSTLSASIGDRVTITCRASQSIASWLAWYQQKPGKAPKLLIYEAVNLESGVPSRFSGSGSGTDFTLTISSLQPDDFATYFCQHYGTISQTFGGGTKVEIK	false (0)
TCN-545 (5082_I15) (antibody, V domains shown) VH: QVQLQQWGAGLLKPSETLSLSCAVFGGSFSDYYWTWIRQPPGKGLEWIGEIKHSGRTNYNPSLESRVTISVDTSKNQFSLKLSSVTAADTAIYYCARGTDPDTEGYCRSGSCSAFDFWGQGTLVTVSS VL: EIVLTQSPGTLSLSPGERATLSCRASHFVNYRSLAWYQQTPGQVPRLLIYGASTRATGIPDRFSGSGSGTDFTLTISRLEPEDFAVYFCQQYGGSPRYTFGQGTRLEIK	true (1)
TCN-530 (5248_H10a) (antibody, V domains shown) VH: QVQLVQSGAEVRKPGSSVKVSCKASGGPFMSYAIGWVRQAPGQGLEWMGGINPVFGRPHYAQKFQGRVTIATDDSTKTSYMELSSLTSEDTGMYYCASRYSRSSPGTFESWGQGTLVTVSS VL: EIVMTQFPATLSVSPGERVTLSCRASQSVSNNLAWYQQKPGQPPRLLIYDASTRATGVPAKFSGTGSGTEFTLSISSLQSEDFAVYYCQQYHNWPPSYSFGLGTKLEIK	true (1)
TCN-532 (5262_H18) (antibody, V domains shown) VH: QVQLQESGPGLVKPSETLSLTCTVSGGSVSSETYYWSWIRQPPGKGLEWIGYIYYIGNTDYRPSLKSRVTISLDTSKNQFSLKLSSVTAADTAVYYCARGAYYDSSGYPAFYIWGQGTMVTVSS VL: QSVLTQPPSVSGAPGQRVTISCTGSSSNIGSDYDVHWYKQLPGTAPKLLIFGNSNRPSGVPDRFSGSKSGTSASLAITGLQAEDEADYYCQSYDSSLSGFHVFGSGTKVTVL	true (1)

Each recorded value in this set is attributed to patent US20150104459A1.
